molecular target: CSNK1G2 (human); assay: radiometric filter-binding kinase assay, Kinase HotSpot; conditions: compound 0.5 µM; ATP 10 µM
# residual activity annotations
Give just the numeric value; % need not be written.

Below are worked cases with known answers.
- SMI: "O=C1C(Cl)=C(N2C(=O)CCC2=O)C(=O)c2ccccc21"
  UNITS_OF_MEASURE: "%"
  residual activity: 99.3
- SMI: "O=C1Nc2ccc(Br)cc2/C1=C\\c1cc2c([nH]1)CCCC2"
  UNITS_OF_MEASURE: "%"
  residual activity: 96.8
- SMI: "CCCCc1c(-c2ccc(OC)cc2)[nH]c2nccnc12"
  UNITS_OF_MEASURE: "%"
  residual activity: 92.5
- SMI: "Cc1cccc(-c2nc(C(C)(C)C)[nH]c2-c2ccc3c(c2)OCO3)n1"
  UNITS_OF_MEASURE: "%"
  residual activity: 104
- SMI: "COc1ccc2c(c1)/C(=C/c1cnc[nH]1)C(O)=N2"
  UNITS_OF_MEASURE: "%"
  residual activity: 95.3

`Cn1c2ccccc2c2c3c(c4c5ccccc5n(CCC#N)c4c21)CNC3=O` yielded residual activity of 105

`CO[C@@H]1[C@H](N(C)C(=O)c2ccccc2)C[C@H]2O[C@]1(C)n1c3ccccc3c3c4c(c5c6ccccc6n2c5c31)C(=O)NC4` yielded residual activity of 98.3

`O=C(c1cc2cc(O)ccc2[nH]1)c1cc2cc(O)ccc2[nH]1` yielded residual activity of 93.8

`O=C1NC(=O)c2c1c1c3ccccc3[nH]c1n1cncc21` yielded residual activity of 63.4

`CS(=O)(=O)CCNCc1ccc(-c2ccc3ncnc(Nc4ccc(OCc5cccc(F)c5)c(Cl)c4)c3c2)o1` yielded residual activity of 99.5
